// values below are reported T/C
# System: L1210 leukemia ip in BDF1 mice, survival T/C
# experiment description: NCI In Vivo Anticancer Drug Screen. Data for tumor model L1210 Leukemia (intraperitoneal) in B6D2F1 (BDF1) mice
# experimental parameters: endpoint: mean survival time; dose: 200.0 mg/kg/injection; schedule: Q01DX009 (ip); vehicle: saline with Tween-80; higher = longer survival
# Experimental: The antitumor activity of compounds was measured in mice bearing transplantable tumors. Survival or tumor size were measured and the results are expressed as the measurement made in the treated group (T) divided by the measurement made in the vehicle treated control group (C). The tumor model used in this assay is L1210 Leukemia (intraperitoneal) in B6D2F1 (BDF1) mice
Toxic doses and inconclusive results are not listed. Peptide text beside a SMILES is read from it. * marks the point of attachment. Bz = O=C(c1ccccc1)*
experimental readout: T/C

compound	system	experimental readout	value measured
COc1ccc(C(C)=O)c(O)c1C	L1210 leukemia ip in BDF1 mice, survival T/C	T/C	94 % of control
CC(C)(C)C(=O)CC(=O)C(C)(C)C	L1210 leukemia ip in BDF1 mice, survival T/C	T/C	97 % of control
COC(=O)CNC(=O)CNC(=O)c1ccccc1 (Bz-Gly-Gly-OMe)	L1210 leukemia ip in BDF1 mice, survival T/C	T/C	87 % of control
N#CC(CC(=O)OCc1ccccc1)NC(=O)OCc1ccccc1 (centres undefined)	L1210 leukemia ip in BDF1 mice, survival T/C	T/C	89 % of control
ON=C(CSCc1ccccc1)CSCc1ccccc1	L1210 leukemia ip in BDF1 mice, survival T/C	T/C	100 % of control
O=C(Nc1ccc(Cl)cc1)c1cccnc1	L1210 leukemia ip in BDF1 mice, survival T/C	T/C	97 % of control
CC1C=CCP1(C)=O (centres undefined)	L1210 leukemia ip in BDF1 mice, survival T/C	T/C	96 % of control
NSc1nc2ccccc2s1	L1210 leukemia ip in BDF1 mice, survival T/C	T/C	93 % of control
OC(c1ccccc1)C1CCCC1 (centres undefined)	L1210 leukemia ip in BDF1 mice, survival T/C	T/C	90 % of control
Nc1cccc(OCCCCOc2cccc(N)c2)c1	L1210 leukemia ip in BDF1 mice, survival T/C	T/C	107 % of control
O=C1NC(=O)C(Cc2ccc(Cl)cc2)C(=O)N1	L1210 leukemia ip in BDF1 mice, survival T/C	T/C	98 % of control
C=CCNC(=S)Nc1ccc(N(C)C)cc1	L1210 leukemia ip in BDF1 mice, survival T/C	T/C	103 % of control
O=C(Nc1ccc(Cl)cc1[N+](=O)[O-])Oc1ccc(-c2ccccc2)cc1	L1210 leukemia ip in BDF1 mice, survival T/C	T/C	92 % of control
CN(C)c1ccc(NC(=O)Nc2cccc(Cl)c2)cc1	L1210 leukemia ip in BDF1 mice, survival T/C	T/C	94 % of control
COc1ccccc1OC(=O)Nc1ccccc1F	L1210 leukemia ip in BDF1 mice, survival T/C	T/C	96 % of control
O=C(/C=C/c1ccc(Cl)c(Cl)c1)C1CCC2CCCCC2C1 (centres undefined)	L1210 leukemia ip in BDF1 mice, survival T/C	T/C	93 % of control
CCC(=O)C(C)(C)c1ccccc1 (tested in a mixture with another compound)	L1210 leukemia ip in BDF1 mice, survival T/C	T/C	96 % of control
CC(=O)Nc1ccc(NC(C)=O)c2c1C(=O)c1ccccc1C2=O	L1210 leukemia ip in BDF1 mice, survival T/C	T/C	96 % of control
Cc1ccccc1OCCCCCl	L1210 leukemia ip in BDF1 mice, survival T/C	T/C	88 % of control
CC(C)(CBr)COC(=O)Nc1cccc2ccccc12	L1210 leukemia ip in BDF1 mice, survival T/C	T/C	87 % of control
COc1cc(CC(=O)O)ccc1OCc1ccccc1	L1210 leukemia ip in BDF1 mice, survival T/C	T/C	101 % of control
C=NCC#N	L1210 leukemia ip in BDF1 mice, survival T/C	T/C	91 % of control
O=C(c1ccccc1)C(c1ccccc1)C(C[N+](=O)[O-])c1ccccc1 (centres undefined)	L1210 leukemia ip in BDF1 mice, survival T/C	T/C	90 % of control
CC(=O)C(C)(CCC(=O)NC(C)(C)C)CCC(=O)NC(C)(C)C	L1210 leukemia ip in BDF1 mice, survival T/C	T/C	100 % of control
COc1cc2c(cc1O)C(=O)CCC2	L1210 leukemia ip in BDF1 mice, survival T/C	T/C	93 % of control
Clc1cc(Cl)c(SSc2cc(Cl)c(Cl)cc2Cl)cc1Cl	L1210 leukemia ip in BDF1 mice, survival T/C	T/C	98 % of control
CC1=C2C(=O)c3ccccc3C2=C(C)S(=O)(=O)O1	L1210 leukemia ip in BDF1 mice, survival T/C	T/C	88 % of control
O=C(Nc1ccc(I)cc1)Nc1ccc(Cl)cc1[N+](=O)[O-]	L1210 leukemia ip in BDF1 mice, survival T/C	T/C	87 % of control
O=C(Nc1nccs1)Nc1ccccc1C(F)(F)F	L1210 leukemia ip in BDF1 mice, survival T/C	T/C	106 % of control
CC(=O)COc1cccc(Cl)c1Cl	L1210 leukemia ip in BDF1 mice, survival T/C	T/C	95 % of control
CC1CCCC/C1=N/NC(=O)c1ccccc1 (centres undefined)	L1210 leukemia ip in BDF1 mice, survival T/C	T/C	108 % of control
COc1ccc(OCCOC(=O)Nc2cccc(C(F)(F)F)c2)cc1	L1210 leukemia ip in BDF1 mice, survival T/C	T/C	96 % of control
CC(C)(c1ccc(OCCO)cc1)c1ccc(OCCO)cc1	L1210 leukemia ip in BDF1 mice, survival T/C	T/C	98 % of control
Cc1ccc(CNc2ccc(I)cc2)cc1	L1210 leukemia ip in BDF1 mice, survival T/C	T/C	96 % of control
CCOC(=O)/C=C/Oc1cc(Cl)c(Cl)cc1Cl	L1210 leukemia ip in BDF1 mice, survival T/C	T/C	92 % of control
O=C1C2=C(C(=O)c3ccccc31)C(=O)C1CC=CCC1C2=O (centres undefined)	L1210 leukemia ip in BDF1 mice, survival T/C	T/C	101 % of control
CN(C)Cc1ccncc1	L1210 leukemia ip in BDF1 mice, survival T/C	T/C	96 % of control
Cc1cccc(C)c1-n1c(=S)[nH]n(-c2ccccc2)c1=S	L1210 leukemia ip in BDF1 mice, survival T/C	T/C	93 % of control
Brc1ccc(-c2nc3ccccc3[nH]2)cc1	L1210 leukemia ip in BDF1 mice, survival T/C	T/C	93 % of control
Fc1c(F)c(F)c(Oc2c(F)c(F)c(C(F)(F)F)c(F)c2F)c(F)c1F	L1210 leukemia ip in BDF1 mice, survival T/C	T/C	98 % of control
Cc1ccccc1OCC(=O)O	L1210 leukemia ip in BDF1 mice, survival T/C	T/C	98 % of control
C=CCOC(=O)CCCCCCCCCCC	L1210 leukemia ip in BDF1 mice, survival T/C	T/C	107 % of control
CCOc1cc(-c2nc(-c3ccc(N=Cc4ccc(N(CCCOS(C)(=O)=O)CCCOS(C)(=O)=O)cc4)cc3)cs2)ccc1OCc1ccccc1	L1210 leukemia ip in BDF1 mice, survival T/C	T/C	94 % of control
O=C1OC2CC1(O)CC(O)C2O (centres undefined)	L1210 leukemia ip in BDF1 mice, survival T/C	T/C	92 % of control

====

# System: L1210 leukemia ip in BDF1 mice, survival T/C
# experiment description: NCI In Vivo Anticancer Drug Screen. Data for tumor model L1210 Leukemia (intraperitoneal) in B6D2F1 (BDF1) mice
# experimental parameters: endpoint: mean survival time; dose: 100.0 mg/kg/injection; schedule: Q04DX003 (ip); vehicle: other; higher = longer survival
Toxic doses and inconclusive results are not listed.
// values below are reported T/C

molecule	T/C
CC(C)CC(NC(=O)CNC(=O)OCc1ccccc1)C(=O)OCc1ccccc1 (configuration not stated)	100 % of control
COC(=O)C(NC(=O)CCl)C(=O)OC	96 % of control
Cc1ccc(N=Nc2c(O)ccc3ccccc23)c([N+](=O)[O-])c1	95 % of control
C=C(Cl)CN(CCCC(=O)O)c1ccccc1	98 % of control
O=C(O)C(Cc1ccc(O)cc1)N(S(=O)(=O)Cc1ccccc1)S(=O)(=O)Cc1ccccc1 (configuration not stated)	95 % of control
Ic1ncnc2nc[nH]c12	106 % of control
OC(c1ccccc1)C(c1ccccc1)C1CO1 (configuration not stated)	103 % of control

====

// values below are reported T/C
# Test system: L1210 leukemia ip in BDF1 mice, survival T/C
# experiment description: NCI In Vivo Anticancer Drug Screen. Data for tumor model L1210 Leukemia (intraperitoneal) in B6D2F1 (BDF1) mice
# experimental parameters: endpoint: mean survival time; dose: 200.0 mg/kg/injection; schedule: Q01DX009 (ip); vehicle: saline; higher = longer survival
# Experimental: The antitumor activity of compounds was measured in mice bearing transplantable tumors. Survival or tumor size were measured and the results are expressed as the measurement made in the treated group (T) divided by the measurement made in the vehicle treated control group (C). The tumor model used in this assay is L1210 Leukemia (intraperitoneal) in B6D2F1 (BDF1) mice
Inconclusive results and toxic doses are left out.

compound	T/C
Ic1ncnc2nc[nH]c12	120 % of control
CC(CC=O)CCCC(C)(C)O (configuration not stated)	102 % of control
CC(C)NCC(=O)c1ccc(O)c(O)c1	115 % of control
ClCc1nc2nc(Cl)c(Cl)nc2[nH]1	102 % of control
O=C1NCCS1	115 % of control
Nc1nc(N)c2cc(CNc3ccc(Cl)c(C(=O)NC(CC(=O)O)C(=O)O)c3)cnc2n1 (configuration not stated)	94 % of control
O=C(O)CN1C(=O)C2CC=CCC2C1=O (configuration not stated)	96 % of control
